# measurement-protocol: Plasma pharmacokinetics of MB076 after single IV dose in thigh-infected mice
# Type: in vivo, mouse
# protocol-conditions: mouse, plasma; single IV 12.5 to 100 mg/kg, infected mice; read-out: AUClast, range over the dose levels
reported-property: AUC(0-t)

Which AUC(0-t) is reported for this molecule? Nc1nnc(SCC(=O)N[C@@H](Cn2cc(C(=O)O)nn2)B(O)O)s1 7100 to 103000 ng·h/mL

###

# measurement-protocol: Plasma pharmacokinetics of MB076 after single IV dose in thigh-infected mice
# Type: in vivo, mouse
# protocol-conditions: mouse, plasma, iv, 25 mg/kg, 25 mg/kg single IV, thigh-infected mice
reported-property: half-life (min)
Provide the reading as a plain figure in min.

Which half-life is reported for this compound? Nc1nnc(SCC(=O)N[C@@H](Cn2cc(C(=O)O)nn2)B(O)O)s1 [MB076] 36.6

###

# measurement-protocol: Plasma pharmacokinetics of MB076 after single IV dose in thigh-infected mice
# Format: in vivo, mouse
# protocol-conditions: mouse; 100 mg/kg single IV, plasma, thigh-infected mice
reported-property: AUC(0-inf) (µg·h/mL)
Write the number in µg·h/mL without appending the unit.

Suppose we examine the compound Nc1nnc(SCC(=O)N[C@@H](Cn2cc(C(=O)O)nn2)B(O)O)s1 ; what AUC(0-inf) value has been reported? 104

###

# measurement-protocol: Plasma pharmacokinetics of MB076 after single IV dose in thigh-infected mice
# Type: in vivo, mouse
# protocol-conditions: mouse; 12.5 mg/kg single IV, plasma, thigh-infected mice
reported-property: clearance
# include the unit after the value

// lookup clearance for Nc1nnc(SCC(=O)N[C@@H](Cn2cc(C(=O)O)nn2)B(O)O)s1 29.1 mL/min/kg

###

# measurement-protocol: Plasma pharmacokinetics of MB076 after single IV dose in thigh-infected mice
# Format: in vivo, mouse
# protocol-conditions: mouse; 50 mg/kg single IV, plasma, thigh-infected mice
reported-property: C0 (µg/mL)
The response must be a number in µg/mL with no trailing unit.

Field request: C0 | item: Nc1nnc(SCC(=O)N[C@@H](Cn2cc(C(=O)O)nn2)B(O)O)s1 207

###

# measurement-protocol: Plasma pharmacokinetics of MB076 after single IV dose in thigh-infected mice
# Type: in vivo, mouse
# protocol-conditions: mouse; 25 mg/kg single IV, plasma, thigh-infected mice
reported-property: C0 (µg/mL)
Report as a plain number; the unit µg/mL is understood.

Sample Nc1nnc(SCC(=O)N[C@@H](Cn2cc(C(=O)O)nn2)B(O)O)s1 — what was its C0? 84

###

# measurement-protocol: Plasma pharmacokinetics of MB076 after single IV dose in thigh-infected mice
# Assay type: in vivo, mouse
# protocol-conditions: mouse; 100 mg/kg single IV, plasma, thigh-infected mice
reported-property: clearance (mL/min/kg)
Please reply with the bare figure in mL/min/kg and do not write the unit itself.

Suppose we examine the compound Nc1nnc(SCC(=O)N[C@@H](Cn2cc(C(=O)O)nn2)B(O)O)s1 ; what clearance value has been reported? 16.1

###

# measurement-protocol: Plasma pharmacokinetics of MB076 after single IV dose in thigh-infected mice
# Format: in vivo, mouse
# protocol-conditions: mouse; 12.5 mg/kg single IV, plasma, thigh-infected mice; read-out: Vss
reported-property: Vd (L/kg)
Answer in L/kg, number only, no unit symbol.

Which Vd value is on record for Nc1nnc(SCC(=O)N[C@@H](Cn2cc(C(=O)O)nn2)B(O)O)s1 ? 0.65
